- Measurement description: Solubility of disease-related insoluble solids in LMBW vehicle and PBS (Example 29)
- Type: physicochemical
- Run conditions: F96 LMBW vehicle, aqueous with cosolvent or surfactant or cyclodextrin, thermodynamic from solid; vehicle at pH 7

# Query smiles, Unit text, solubility
data = [
    ("CC(C)CCC[C@@H](C)[C@H]1CC[C@H]2[C@@H]3CC=C4C[C@@H](O)CC[C@]4(C)[C@H]3CC[C@]12C", "mg/mL", 25),
]

* * *

- Measurement description: Solubility of insoluble drugs in 16% SBECD aqueous solution (Example 27)
- Run conditions: 16% SBECD aqueous solution, aqueous with cosolvent or surfactant or cyclodextrin, thermodynamic from solid
Reported property: solubility (mg/mL)

# Compound, Unit text, Measured number
rows = [
    ("CC(C)c1cccc(C(C)C)c1O [Propofol]", "mg/mL", 56.6),
    ("Cc1ccc(-c2cc(C(F)(F)F)nn2-c2ccc(S(N)(=O)=O)cc2)cc1 [Celecoxib]", "mg/mL", 1.03),
    ("CC[C@H]1OC(=O)[C@H](C)[C@@H](O[C@H]2C[C@@](C)(OC)[C@@H](O)[C@H](C)O2)[C@H](C)[C@@H](O[C@@H]2O[C@H](C)C[C@H](N(C)C)[C@H]2O)[C@](C)(OC)C[C@@H](C)C(=O)[C@H](C)[C@@H](O)[C@]1(C)O [Clarithromycin]", "mg/mL", 1.71),
]

* * *

- Measurement description: Solubility of insoluble drugs in F96 LMBW vehicle (Example 4)
- Format: physicochemical
- Run conditions: aqueous with cosolvent or surfactant or cyclodextrin, thermodynamic from solid

# Molecule, solubility / µg/mL
measured = [
    ("CC[C@@H]([C@H](C)O)n1ncn(-c2ccc(N3CCN(c4ccc(OC[C@@H]5CO[C@@](Cn6cncn6)(c6ccc(F)cc6F)C5)cc4)CC3)cc2)c1=O [Posaconazole]", 500),
    ("Oc1ccc(C=Cc2cc(O)cc(O)c2)cc1 [Resveratrol]", 9000),
    ("C[C@@H]1[C@H](O)[C@@H](C)/C=C/C=C/C=C/C=C/C=C/C=C/C=C/[C@H](O[C@@H]2O[C@H](C)[C@@H](O)[C@H](N)[C@@H]2O)C[C@@H]2O[C@](O)(C[C@@H](O)C[C@@H](O)[C@H](O)CC[C@@H](O)C[C@@H](O)CC(=O)O[C@H]1C)C[C@H](O)[C@H]2C(=O)O [Amphotericin]", 2400),
    ("CC[C@H]1OC(=O)[C@H](C)[C@@H](O[C@H]2C[C@@](C)(OC)[C@@H](O)[C@H](C)O2)[C@H](C)[C@@H](O[C@@H]2O[C@H](C)C[C@H](N(C)C)[C@H]2O)[C@](C)(OC)C[C@@H](C)C(=O)[C@H](C)[C@@H](O)[C@]1(C)O [Clarithromycin]", 9100),
    ("CC(=O)[C@H]1CC[C@H]2[C@@H]3CCC4=CC(=O)CC[C@]4(C)[C@H]3CC[C@]12C [Progesterone]", 12000),
]

* * *

- Measurement description: Voriconazole solubility in LMBW versus binary/ternary mixtures of L, M, B and alcohol (Example 2)
- Format: physicochemical
- Run conditions: emulsion (glycocholic acid and MCT in water), aqueous with cosolvent or surfactant or cyclodextrin, thermodynamic from solid; vehicle % wt in water: glycocholic acid 10.6, MCT 15; emulsion, opaque; pH 4.5-5, RT
- Experimental: For this study, voriconazole was used as the insoluble drug. To determine solubility in each combination, voriconazole was added to each combination and mixed until it no longer would dissolve. For each mixture, the pH was adjusted to pH 4.5-5, equilibrated at room temperature, and then passed through a 0.2-micron filter. The filtrate was analyzed by HPLC for voriconazole concentration. Each HPLC-determined voriconazole concentration is noted as a “Voriconazole solubility” in the tables below.
Reported property: solubility (µg/mL)

# Query smiles, Reported property, Unit text, Measured number
data = [
    ("C[C@@H](c1ncncc1F)[C@](O)(Cn1cncn1)c1ccc(F)cc1F", "solubility", "µg/mL", 3100),
]
